System: P. falciparum female gametocytes
Test: P. falciparum female gametogenesis assay (Pf FGAA)
Conditions: 1: YES; 0: NO
Property measured: Is compound selective in assay? Pf FGAA active?

Illustrative cases are given below, each with its answer.
CCN(CC)CCCn1c(N)c(-c2nc3ccccc3[nH]2)c2nc(C#N)c(C#N)nc21 [TCMDC-123680] : 0 (0: NO)
CNC(=S)NN=C(C)c1ccccn1 [TCMDC-123475] : 1 (1: YES)
COc1ccccc1-c1nc2c(ccc3nc(N)nc(N)c32)[nH]1 [TCMDC-137976] : 0 (0: NO)
COc1c(C2CCN(CCN3CCC(CNC(=O)c4ccc(-c5ccc(C#N)cc5)cc4)CC3)CC2)ccc2c1CCCC2 [TCMDC-138859] : 0 (0: NO)
Fc1ccc2[nH]c(-c3ccc(-c4ccc(CN5CCC(CCN6CCCCC6)CC5)cc4)cc3)nc2c1.O=C(O)C(F)(F)F [TCMDC-133924] : 0 (0: NO)

Problem: Please supply the value of reported Is compound selective in assay? Pf FGAA active? for the item FC(F)(F)c1cnc(Sc2nnc(-c3ccncc3)o2)c(Cl)c1 [TCMDC-123767]
Solution: 1 (1: YES)

Problem: Please supply the value of reported Is compound selective in assay? Pf FGAA active? for the item O=C(c1ccc([N+](=O)[O-])o1)N1CCN(c2nc3c(Cl)cccc3s2)CC1 [TCMDC-124316]
Solution: 1 (1: YES)

Problem: Please supply the value of reported Is compound selective in assay? Pf FGAA active? for the item Cc1cc(-c2ccc(CNC3Cc4ccccc4C3)cc2)ccc1S(=O)(=O)NCCN1CCCC1.O=C(O)C(F)(F)F [TCMDC-132243]
Solution: 0 (0: NO)

Problem: Please supply the value of reported Is compound selective in assay? Pf FGAA active? for the item Cc1c(Cl)cccc1N=C(S)NN=Cc1ccccn1 [TCMDC-125487]
Solution: 1 (1: YES)

Problem: Please supply the value of reported Is compound selective in assay? Pf FGAA active? for the item Cc1ccc(-n2c(Sc3ncnc4sccc34)nnc2N2CCCC2)cc1 [TCMDC-125247]
Solution: 1 (1: YES)

Problem: Please supply the value of reported Is compound selective in assay? Pf FGAA active? for the item Cc1cccc2nc(-c3ccc(-c4ccc(CNCc5ccc(CN)cc5)cc4)s3)[nH]c12.O=C(O)C(F)(F)F [TCMDC-132809]
Solution: 1 (1: YES)

Problem: Please supply the value of reported Is compound selective in assay? Pf FGAA active? for the item COc1ccc(C[C@H](N)C(=O)N[C@H]2[C@@H](O)[C@H](n3cnc4c(N(C)C)ncnc43)O[C@@H]2CO)cc1 [TCMDC-123493]
Solution: 0 (0: NO)

Problem: Please supply the value of reported Is compound selective in assay? Pf FGAA active? for the item Cl.c1ccc2c(NCCCCCCCCNc3ccnc4ccccc34)ccnc2c1 [TCMDC-137751]
Solution: 0 (0: NO)

Problem: Please supply the value of reported Is compound selective in assay? Pf FGAA active? for the item CC(=O)c1ccc2nc[nH]c(=O)c2c1 [TCMDC-138172]
Solution: 0 (0: NO)

Problem: Please supply the value of reported Is compound selective in assay? Pf FGAA active? for the item Cl.N[C@@H](CCNC1CCN(c2cccc(C(F)(F)F)c2)CC1)Cc1ccc(F)c(F)c1 [TCMDC-132301]
Solution: 0 (0: NO)
